tested on: KM12 colon; assay: NCI-60 one-dose screen, 48 h; conditions: 10 µM unless noted
The panel holds about 83,000 compounds, 20% with a hit somewhere; the sample as a whole holds those more often. Activity calls are given as the source filed them. Rule for the calls: active = growth percent below 10; inactive = the rest.
Response enum: 1 for active, -1 for inactive

Known results for molecules:
molecule | classAssignment
Cc1cc(NC(=O)C2c3ccccc3C(=O)N(CC(C)C)C2c2cccs2)no1 (stereo unspecified) | -1
O=C(O)Cn1ccc2ccccc21 | -1
CCCCc1n(Cc2ccc3ccccc3n2)cc[n+]1Cc1ccc2ccccc2n1 | 1
COc1cc2c(cc1C)NC(=O)/C2=C\c1c[nH]c2ccccc12 | -1
COc1ccc(/C(=C\c2cc(OC)c(OC)c(OC)c2)C(=O)N2CCN(c3ccccc3)CC2)cc1O | -1

# input Entry O=C1c2ccccc2C2N1CCC1CCc3ccccc3N12 (stereo unspecified) : call = ?
# output -1

---

test system: HT29 colon; assay: NCI-60 one-dose screen, 48 h; conditions: 10 µM unless noted
This is part of a sample that, as a whole, favours compounds with a hit. Of some 83,000 tested, about 20% had one in any assay. Active and inactive are the calls of the source. Rule for the calls: active = growth percent below 10; inactive = the rest.
Response enum: true for active, false for inactive

compound | assaySystem | classAssignment
CC(=O)O[C@H]1[C@H](CC#CC#CC[C@@H]2C[C@]3(C)[C@H]4CC=C5[C@H]6[C@@H](C)[C@H](C)CC[C@]6(C(=O)NCCN(CCN)CCN)CC[C@@]5(C)[C@]4(C)CC[C@H]3C(C)(C)[C@H]2OC(C)=O)C[C@]2(C)[C@H]3CC=C4[C@H]5[C@@H](C)[C@H](C)CC[C@]5(C(=O)NCCN(CCN)CCN)CC[C@@]4(C)[C@]3(C)CC[C@H]2C1(C)C | HT29 colon | false
CC1C2CCC(C2)C1COCCOCCO (configuration not stated) | HT29 colon | false
CCCc1n(Cc2ccc3ccccc3n2)cc[n+]1Cc1ccc2ccccc2n1 | HT29 colon | false
COc1cc(CN2CCO[C@H](COc3cccc(F)c3)C2)ccc1Cl | HT29 colon | false

# input Entry CCC(C)C1NC(=O)c2nc(oc2-c2ccccc2)-c2csc(n2)-c2csc(n2)-c2nc(oc2C)-c2coc(n2)CNC(=O)C(C(C)CC)NC1=O (configuration not stated) : call = ?
# output true

# input Entry CC(=O)[C@H]1CC[C@H]2[C@@H]3CC[C@H]4CC=CC[C@]4(C)[C@H]3CC[C@]12C : call = ?
# output false

# input Entry CC(C)[C@H](CN)NC[C@H](C)NS(=O)(=O)c1ccc(C(C)(C)C)cc1 : call = ?
# output false

---

tested on: K-562 leukemia; assay: NCI-60 one-dose screen, 48 h (100 = growth as untreated, 0 = no growth, -100 = all killed); conditions: 10 µM unless noted
The panel holds about 83,000 compounds, 20% with a hit somewhere; the sample as a whole holds those more often.
Label 1.0 for high-side growth (at or above 30%) and 0.0 for low-side growth (below it).

Known results for compounds:
compound | classAssignment
COc1ccc(CCN2COc3c([C@@H](C)CCC=C(C)C)ccc(C)c3C2)cc1OC | 0.0
O=C(CS)OCC(COC(=O)CS)(COC(=O)CS)COC(=O)CS | 1.0

# input Can COc1cc(C2CC(c3cccc(Nc4ccnc5cc(Cl)ccc45)c3)=NN2c2ccccc2)cc(OC)c1OC (stereo unspecified) be said to have growth at or above 30%?
# output 0.0

# input Can CCN(CC)CCCC(C)Nc1cnc(C(=O)Nc2cccc3ccc(OC)nc23)cn1 (stereo unspecified) be said to have growth at or above 30%?
# output 0.0

src = PubChem BioAssay (NCI)
